ASSAY_TEXT: Tissue concentration partitioning (plasma, mesenteric lymph node, fat) after single oral dose in Maisine, LC-MS/MS
Type: in vivo
MEASUREMENT_SETUP: mouse, plasma; mice, single oral 10 mg in Maisine, 4 hours post-dosing; read-out: plasma concentration
OBSERVED_PROPERTY: concentration at 4 h

## Input Give the reported concentration at 4 h for this molecule. O=C(NCCOCCOCCOCCNC(=O)c1ccccc1)c1ccccc1
## Output ~95 ng/mL

###

ASSAYED_SYSTEM: PI3Kα (Homo sapiens, UniProt P42336)
Sequence (P42336 whole entry, species assumed): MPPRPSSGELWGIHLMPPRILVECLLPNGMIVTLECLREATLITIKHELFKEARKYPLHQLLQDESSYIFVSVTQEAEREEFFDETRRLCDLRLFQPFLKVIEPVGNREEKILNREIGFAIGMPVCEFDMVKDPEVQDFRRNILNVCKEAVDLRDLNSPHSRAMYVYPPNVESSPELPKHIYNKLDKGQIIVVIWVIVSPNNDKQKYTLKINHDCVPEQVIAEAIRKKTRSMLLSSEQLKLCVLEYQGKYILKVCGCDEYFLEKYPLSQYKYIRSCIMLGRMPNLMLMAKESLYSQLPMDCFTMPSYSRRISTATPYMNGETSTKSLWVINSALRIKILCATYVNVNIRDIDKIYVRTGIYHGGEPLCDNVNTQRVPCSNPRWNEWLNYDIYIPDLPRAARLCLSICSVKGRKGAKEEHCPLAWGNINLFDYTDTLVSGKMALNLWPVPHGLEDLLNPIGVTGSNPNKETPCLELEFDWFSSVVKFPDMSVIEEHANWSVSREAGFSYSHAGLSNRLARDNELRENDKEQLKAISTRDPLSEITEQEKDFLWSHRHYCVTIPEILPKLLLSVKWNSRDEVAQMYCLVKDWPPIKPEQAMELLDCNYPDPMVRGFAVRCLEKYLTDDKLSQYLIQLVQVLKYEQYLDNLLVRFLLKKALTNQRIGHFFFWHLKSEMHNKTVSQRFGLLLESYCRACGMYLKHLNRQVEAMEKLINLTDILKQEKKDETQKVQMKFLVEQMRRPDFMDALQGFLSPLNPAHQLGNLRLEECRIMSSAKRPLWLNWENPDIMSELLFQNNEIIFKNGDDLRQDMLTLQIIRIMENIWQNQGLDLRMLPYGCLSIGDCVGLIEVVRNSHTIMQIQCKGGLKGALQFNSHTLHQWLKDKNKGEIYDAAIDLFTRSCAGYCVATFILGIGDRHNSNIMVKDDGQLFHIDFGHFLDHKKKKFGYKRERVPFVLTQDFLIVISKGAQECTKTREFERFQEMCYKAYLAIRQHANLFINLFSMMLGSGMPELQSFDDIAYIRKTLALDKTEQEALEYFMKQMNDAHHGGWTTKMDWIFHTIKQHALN
Sequence (P27986 whole entry partner, species assumed): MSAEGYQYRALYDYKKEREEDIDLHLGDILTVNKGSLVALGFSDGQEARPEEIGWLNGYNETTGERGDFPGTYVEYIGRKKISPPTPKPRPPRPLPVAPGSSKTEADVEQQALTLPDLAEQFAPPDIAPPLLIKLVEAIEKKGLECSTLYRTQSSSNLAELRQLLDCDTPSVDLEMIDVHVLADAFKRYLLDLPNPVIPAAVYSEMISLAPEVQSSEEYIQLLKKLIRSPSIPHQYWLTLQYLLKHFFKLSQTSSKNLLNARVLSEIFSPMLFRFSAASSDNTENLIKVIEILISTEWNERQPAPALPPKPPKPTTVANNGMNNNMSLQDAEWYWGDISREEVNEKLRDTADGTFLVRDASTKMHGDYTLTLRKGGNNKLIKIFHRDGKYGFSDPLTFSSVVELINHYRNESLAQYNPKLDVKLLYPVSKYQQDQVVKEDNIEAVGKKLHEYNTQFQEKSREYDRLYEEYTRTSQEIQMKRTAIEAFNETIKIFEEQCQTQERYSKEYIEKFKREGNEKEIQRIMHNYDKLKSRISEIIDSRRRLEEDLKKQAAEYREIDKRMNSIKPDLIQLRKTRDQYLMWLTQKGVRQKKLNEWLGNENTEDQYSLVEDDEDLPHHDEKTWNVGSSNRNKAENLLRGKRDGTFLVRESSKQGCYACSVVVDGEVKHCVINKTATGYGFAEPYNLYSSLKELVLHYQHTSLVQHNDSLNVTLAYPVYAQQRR
ASSAY_TEXT: In vitro inhibition of PI3Kα
Format: biochemical
MEASUREMENT_SETUP: Table 14; read-out: IC50 (nM) PI3Kα
OBSERVED_PROPERTY: IC50 (nM)
Give just the number in nM; leave the unit off.

- TEST_SMILES: "O=C(NOCCOCCOCCOCCNc1nc(N2CCOCC2)nc(-n2c(C(F)F)nc3ccccc32)n1)c1ccc(F)c(F)c1Nc1ccc(F)cc1F"
  ASSAYED_SYSTEM: "PI3Kα (Homo sapiens, UniProt P42336)"
  VALUE_UNITS: "nM"
  IC50: 130

## Input Give the reported IC50 for this compound. CC(=O)N(C)CCNc1nc(N2CCOCC2)nc(-n2c(C(F)F)nc3ccccc32)n1
## Output 10.3

## Input Give the reported IC50 for this compound. O=C(NOCCOCCOCCOCCN(CCO)c1nc(N2CCOCC2)nc(-n2c(C(F)F)nc3ccccc32)n1)c1ccc(F)c(F)c1Nc1ccc(I)cc1F
## Output 107

## Input Give the reported IC50 for this compound. CN(C)CCN(CCO)c1nc(N2CCOCC2)nc(-n2c(C(F)F)nc3ccccc32)n1
## Output 148

## Input Give the reported IC50 for this compound. NOCCOCCOCCOCCNc1nc(N2CCOCC2)nc(-n2c(C(F)F)nc3ccccc32)n1
## Output 89.3

Where these numbers come from: patent US11311624B2
